biological target: MMP-13 (Homo sapiens); construct: made in house; test: In-vitro fluorescence assay of MMP-13 activity; assay type: biochemical; settings: recombinant human catalytic domain of MMP-13; read-out: MMP-13 IC50
measured_quantity: IC50 (nM)

CC(=O)c1ccc2oc(C(=O)Nc3ccc(-c4ccc(S(=O)(=O)N[C@H](C(=O)O)C(C)C)cc4)cc3)c(C)c2c1O
3.2
CC(C)[C@H](NS(=O)(=O)c1ccc(-c2ccc(NC(=O)c3nc4ccccc4[nH]3)cc2)cc1)C(=O)O
0.4
Cc1c(C(=O)Nc2ccc(-c3ccc(S(=O)(=O)N[C@H](C(=O)O)C(C)C)cc3)cc2)oc2cccc(C#CCN(C)C)c12
16
CC(C)[C@H](NS(=O)(=O)c1ccc(-c2ccc(NC(=O)c3cc4ccccc4o3)cn2)cc1)C(=O)O
3.1
COc1cccc2cc(C(=O)Nc3ccc(-c4ccc(S(=O)(=O)N[C@H](C(=O)O)C(C)C)cc4)cc3)oc12
10.4
Cc1c(C(=O)Nc2ccc(-c3ccc(S(=O)(=O)N[C@H](C(=O)O)C(C)C)cc3)cc2)oc2cccc(N)c12
4.3

A = COc1c(Cl)ccc2oc(COc3ccc(-c4ccc(S(=O)(=O)N[C@H](C(=O)O)C(C)C)cc4)cc3)c(C)c12
B = Cc1c(C(=O)Nc2ccc(-c3ccc(S(=O)(=O)N[C@H](C(=O)O)C(C)C)cc3)cc2)oc2cccc(OCC(=O)O)c12
[Q] For the pair A and B , which entry has the numerically smaller recorded IC50? Bench note: the answer is the label of the chosen record.
[A] A
(A: 2.1 nM, B: 8.5 nM)
